Molecular target: T1, mouse SEMA4D, full length, on CHO-K1 cells (CHO-K1 mSEMA4D) (mouse, UniProt O09126 24-861)
T1 construct: whole, on cells; also called murine SEMA4D recombinant cells
T1 sequence (looked up): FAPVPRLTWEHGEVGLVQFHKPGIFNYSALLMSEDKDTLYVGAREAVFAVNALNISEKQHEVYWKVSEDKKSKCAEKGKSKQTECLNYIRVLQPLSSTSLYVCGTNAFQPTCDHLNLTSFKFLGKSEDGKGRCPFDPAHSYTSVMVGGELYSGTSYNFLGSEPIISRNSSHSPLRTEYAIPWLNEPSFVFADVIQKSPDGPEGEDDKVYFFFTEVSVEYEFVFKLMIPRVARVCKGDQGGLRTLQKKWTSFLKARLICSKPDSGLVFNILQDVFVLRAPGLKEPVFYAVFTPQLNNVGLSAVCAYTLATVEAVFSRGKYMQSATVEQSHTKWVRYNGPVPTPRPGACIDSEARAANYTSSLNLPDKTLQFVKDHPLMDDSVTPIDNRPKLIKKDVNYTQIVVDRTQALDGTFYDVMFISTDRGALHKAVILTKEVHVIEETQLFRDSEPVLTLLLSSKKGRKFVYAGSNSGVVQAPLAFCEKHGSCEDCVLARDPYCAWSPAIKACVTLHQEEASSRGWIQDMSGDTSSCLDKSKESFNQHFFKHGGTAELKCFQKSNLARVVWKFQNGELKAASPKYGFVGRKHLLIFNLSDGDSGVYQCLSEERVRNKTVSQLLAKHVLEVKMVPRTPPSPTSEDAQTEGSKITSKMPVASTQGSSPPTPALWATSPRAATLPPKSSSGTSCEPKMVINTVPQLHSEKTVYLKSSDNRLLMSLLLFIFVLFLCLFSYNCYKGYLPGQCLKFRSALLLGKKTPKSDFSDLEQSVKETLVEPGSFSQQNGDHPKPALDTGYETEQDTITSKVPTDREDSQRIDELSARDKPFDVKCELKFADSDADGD
Assay: FACS, CHO-K1 mSEMA4D cells; Ab 0.00427 nM
endpointName: MFI
One number for each entry.

In the examples that follow, each entry is paired with its recorded MFI.
| binder | reported |
| --- | --- |
| 32C8F10 (antibody, V domains shown, Mouse monoclonal antibody purified from hybridoma supernatant on protein A) VH: EVQLQQSGAELVRPGASVKLSCTASGFNIKDEYIHWVKQRPEQGLEWIGWIDPANGHTEYASRFQAKATITADTSSNTAYLQLSSLTSEDTAVYYCTTGDYDGFAYWGQGTLVTVST VL: QIVLTQSPAIMSASPGEKVTISCSARSSVSYMYWYQQKPGSSPKPWIYRTSNLASGVPARFSGSGSGTSYSLTISSMEAEDAATYYCQHYHTYPYTFGGGTKLEIK | 30.2 |
| 38H2E3 (antibody, V domains shown, Mouse monoclonal antibody purified from hybridoma supernatant on protein A) VH: EFQLQQSGPEVVKPGASVKISCKASGYSFTDYNMNWMKQSKGKSLEWIGVISPDYGTTTYNQNFKDKATLTVDQSSSTAYMQLNSLTSEDSAVYYCAKDMYYVYAYYTMDYWGHGTSVTVSS VL: DVVMTQTPLSLPVSLGDQASISCRSSQSLVHSNGHTYLHWYLQRPGQSPTLLIYKVSNRFSGVPDRVSGSGSGTDFTLKISRVEAEDLGVYFCSQGTHVPRTFGGGTKLEIK | 29.9 |

Please look at the following binder next.
Enquiry: I am curious: what MFI value has been reported for 31C11G2 (antibody, V domains shown, Mouse monoclonal antibody purified from hybridoma supernatant on protein A) VH: EVQLQQSGAELVRPGASVKLSCTASGFNIKDEYIHWVKQRPEQGLEWIGWIDPANGHTEYASRFQAKATITADTSSNTAYLQLSSLTSEDTAVYYCTTGDYDGFVYWGQGTLVTVST VL: QIVLTQSPAIMSASPGEKVTIFCSARSSVSYMYWYQQKPGSSPKPWIYRTSNLASGVPARFSGSGSGTSYSLTISSMEAEDAATYYCQHYHTYPYTFGGGTKLEIK ?
Return: 31.4
